B1: tRNA (parent)
chain: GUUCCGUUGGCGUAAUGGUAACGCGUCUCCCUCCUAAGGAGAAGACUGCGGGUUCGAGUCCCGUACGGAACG

variants of: B1; assay: yeast fitness relative to wild type (ratio to wild type); higher = fitter; tRNA-Arg(CCU), competitive growth, 37 C, YPD
This sample holds only a part of the variants without activity.
Classification field: true = yeast fitness at or over 0.6; false = yeast fitness under 0.6.

Problem: Exam item: decide whether the reported yeast fitness for G6A C11G A21G C27G C29U U35G is at least 0.6.
Solution: false

Problem: Textbook exercise: given the entry U19C C24G A37U U54G U64A , state whether its yeast fitness is greater than or equal to 0.6.
Solution: false

Problem: Hi team, for A45G C66A , is the recorded yeast fitness at or above 0.6?
Solution: false

Problem: Tell me whether yeast fitness is at least 0.6 here: G41A G67U G68C
Solution: false

Problem: Record C31G C49G C62U G67C G68A ; criterion: yeast fitness no lower than 0.6. Met?
Solution: false

Problem: # bool: yeast fitness of A43C U64G >= 0.6
Solution: true

Problem: Can A14C U16G C29U U54C be said to have yeast fitness at or above 0.6?
Solution: false

Problem: Is it the case that G48A C61G C62U has yeast fitness reaching or exceeding 0.6?
Solution: false

Problem: Is yeast fitness for G10C C11A C34A G51A C61G A69U at or above 0.6?
Solution: false

Problem: Could you tell me if the measured yeast fitness of U7A G44C G63A reaches 0.6 or more?
Solution: false

Problem: Check the entry U7A G23C C33G C46U U64C : does yeast fitness equal or exceed 0.6?
Solution: false

Problem: Could you please find out whether A15G G18C has yeast fitness that meets 0.6 or exceeds it?
Solution: true

Problem: Does yeast fitness meet or surpass 0.6 for C29U A45C A57G A65U ?
Solution: false

Problem: Given the entry C11A U59A G67C A69C , answer whether its yeast fitness meets or surpasses 0.6.
Solution: false

Problem: Would you say G56A G58A G67C shows yeast fitness at minimum 0.6?
Solution: true

Problem: Does the variant G12A A15G G39C have recorded yeast fitness that is 0.6 or more?
Solution: false

Problem: Is yeast fitness at least 0.6? Consider G9C G10C C29G C46A C66U
Solution: false

Problem: yeast fitness >= 0.6 for C5G U32A A70U ?
Solution: false

Problem: Is it the case that G25A C30G C34A C49G has yeast fitness reaching or exceeding 0.6?
Solution: false

Problem: Please check the record U19A U64A and state if its yeast fitness is at or above 0.6.
Solution: true

Problem: Is yeast fitness for C5G U64G at or above 0.6?
Solution: true

Problem: Please tell me: is the variant U2C U16C C22A C29A G51C at or over 0.6 in terms of yeast fitness?
Solution: false

Problem: Answer whether yeast fitness of G6A C34A A40U U64A is greater than or equal to 0.6.
Solution: false

Problem: Test whether the variant C11A A37U C62A C66U records yeast fitness of 0.6 or higher.
Solution: false

Problem: Is it the case that U32C G58C has yeast fitness reaching or exceeding 0.6?
Solution: true

Problem: Check if yeast fitness >= 0.6 (inclusive). Item: A15G G63A
Solution: true

Problem: Given G38C C61G C66U A69U , state whether its yeast fitness is at least 0.6.
Solution: false

Problem: In plain terms: is recorded yeast fitness at least 0.6 for C11A A21U C34A ?
Solution: false

Problem: Kindly determine if yeast fitness recorded for C29U G44C U54A is above or exactly 0.6.
Solution: false
